Value source: ChEMBL document CHEMBL1155849

Test system: HCT-8
Test: Cytotoxicity against human HCT8 cells by MTT assay
Format: functional, cell-based
Reported IC50 values for a set of molecules

compound structure string | value reported
CC1=C[C@@H]2C3=C(C)C(=O)O[C@H]3C[C@@H](C)[C@@H]2CC1=O | > 5 µM

Input line: For HCT-8, give IC50 of the listed molecule: CC1=C[C@H]2[C@@H](CC1)[C@H](C)C[C@H](O)[C@@]2(O)C(C)C
Output line: 2 µM

Input line: For HCT-8, give IC50 of the listed molecule: CC1=C[C@@H]2C3=C(C)COO[C@@]3(O)C[C@@H](C)[C@@H]2CC1=O
Output line: > 5 µM

Input line: For HCT-8, give IC50 of the listed molecule: CC1=C[C@@H]2C3=C(C)C(=O)O[C@]3([C@@]34C[C@@H](C)[C@@H]5CC(=O)C(C)=C[C@@H]5C3=C(C)C(=O)O4)C[C@@H](C)[C@@H]2CC1=O
Output line: > 5 µM
